- assay-procedure: pharmacokinetic analysis in rats
- measurement-conditions: male, Sprague-Dawley, rat, plasma, ip, 20 mg/kg
readout: AUC(0-t) (ng·h/mL)
Lab book: enter the figure in ng·h/mL, no units written.

Incoming: I'd like to know its AUC(0-t). The compound in question is Cc1coc2c1C(=O)C(=O)c1c-2ccc2c(C)cccc12 [Tanshinone I, tanshinone I]
Outgoing: 265

----------
Reported SI (CC50/EC50) for target or system SFTSV, by entry.

Example compounds with recorded SI (CC50/EC50):
compound	SI (CC50/EC50)
Cc1cc(O)c2c(c1)C(=O)c1cc(O)cc(O)c1C2=O	53
O=C1c2c(O)c(=O)ccn2N([C@@H]2c3ccccc3SCc3c2ccc(F)c3F)[C@@H]2COCCN12 [Baloxavir, baloxavir, reference compound]	10
Cc1coc2c1C(=O)C(=O)c1c-2ccc2c1CCCC2(C)C	85
COc1c(/C=C/C(=O)c2ccc(O)c(CC=C(C)C)c2)ccc(O)c1O	10
COc1c(CC=C(C)C)c(O)cc2oc(=O)c(-c3ccc(O)cc3O)cc12	25

Incoming: Query: SI (CC50/EC50); subject: `CC(C)=CCc1cc2c(=O)cc(-c3ccc(O)cc3)oc2cc1O`
Outgoing: 23

Incoming: Query `CC(C)=CCc1c(O)ccc(-c2coc3cc(O)cc(O)c3c2=O)c1O` next
Outgoing: 44

Incoming: Okay, and `Cc1coc2c1C(=O)C(=O)c1c-2ccc2c(C)cccc12` ?
Outgoing: 121

----------
- assay-procedure: pharmacokinetic analysis in rats
- measurement-conditions: male, Sprague-Dawley, rat, plasma, ip, 20 mg/kg
readout: half-life (h)
State the answer as a number, implicitly in h.

Incoming: Which half-life value is on record for Cc1coc2c1C(=O)C(=O)c1c-2ccc2c(C)cccc12 [Tanshinone I, tanshinone I] ?
Outgoing: 35

----------
- assay-procedure: pharmacokinetic analysis in rats
- measurement-conditions: male, Sprague-Dawley, rat, plasma, iv, 20 mg/kg
readout: AUC(0-t) (ng·h/mL)
Report as a plain number; the unit ng·h/mL is understood.

Incoming: So what's the measured AUC(0-t) for this one? `Cc1coc2c1C(=O)C(=O)c1c-2ccc2c(C)cccc12`
Outgoing: 412

----------
- assay-procedure: pharmacokinetic analysis in rats
- measurement-conditions: male, Sprague-Dawley, rat, plasma, ip, 20 mg/kg
readout: Cmax (ng/mL)
Write it as a number; the unit ng/mL goes unstated.

Incoming: Suppose we examine the molecule `Cc1coc2c1C(=O)C(=O)c1c-2ccc2c(C)cccc12` ; what Cmax value has been reported?
Outgoing: 12.8

----------
- assay-procedure: cytotoxicity by CCK8 assay
- measurement-conditions: African green monkey, Vero cells
The entries below come with measured CC50 at 36 h values attached.
Provide the reading as a plain figure in µM.

Some entries whose results are on file:
molecule	readout	measure-unit	assay-result
CC(C)=CCc1cc2c(=O)cc(-c3ccc(O)cc3)oc2cc1O [Licoflavone A, licoflavone A]	CC50 at 36 h	µM	63.8
Cc1coc2c1C(=O)C(=O)c1c-2ccc2c1CCCC2(C)C [Tanshinone IIA, tanshinone IIA]	CC50 at 36 h	µM	242
Cc1cc(O)c2c(c1)C(=O)c1cc(O)cc(O)c1C2=O [Emodin, emodin]	CC50 at 36 h	µM	145

Incoming: Which CC50 at 36 h reading was recorded for the molecule COc1c(CC=C(C)C)c(O)cc2oc(=O)c(-c3ccc(O)cc3O)cc12 [Glycycoumarin, glycycoumarin] ?
Outgoing: 46.3

Incoming: Now give it for Cc1coc2c1C(=O)C(=O)c1c-2ccc2c(C)cccc12 [Tanshinone I, tanshinone I] too.
Outgoing: 245

Incoming: Another molecule to look at: COc1c(/C=C/C(=O)c2ccc(O)c(CC=C(C)C)c2)ccc(O)c1O [Licochalcone D, licochalcone D]
Outgoing: 40

Incoming: Cool, now O=C1c2c(O)c(=O)ccn2N([C@@H]2c3ccccc3SCc3c2ccc(F)c3F)[C@@H]2COCCN12 [Baloxavir, baloxavir, reference compound]
Outgoing: 55.2

Incoming: Now consider CC(C)=CCc1c(O)ccc(-c2coc3cc(O)cc(O)c3c2=O)c1O [Licoisoflavone A, licoisoflavone A] .
Outgoing: 167
